From: PubChem BioAssay (NCI)

experiment: NCI Yeast Anticancer Drug Screen. Data for the rad50 strain (AID 155); settings: S. cerevisiae rad50 strain growth inhibition; at 50.0 µM; stronger effect = higher value
About 79,000 compounds went through this panel and 15% of them were active in at least one assay; those are over-represented in the sample as a whole.
Label not met if growth inhibition falls below 30%; label met in every other case.

{"Compound": "O=C(O)c1ccc(Br)cc1C(=O)c1ccccc1", "Class Assignment": "not met"}
{"Compound": "c1cc[c]([Sn]([O]c2cccc3cccnc23)([c]2ccccc2)[c]2ccccc2)cc1", "Class Assignment": "met"}
{"Compound": "CC(C(=O)NN)C(O)C(C)(C)O (configuration not stated)", "Class Assignment": "met"}
{"Compound": "CC(=O)SC(C[N+](=O)[O-])c1ccc2c(c1)OCO2 (configuration not stated)", "Class Assignment": "met"}
{"Compound": "CN(C)c1ccc(/C=C(/C#N)c2ccc(Cl)cc2)cc1", "Class Assignment": "not met"}
{"Compound": "CNC1C(O)C(NC)C2OC3(O)C(=O)CC(C)OC3OC2C1O (configuration not stated)", "Class Assignment": "met"}
{"Compound": "CC(C)C1COC(c2ccc3ccccc3c2-c2c(O[Si](C)(C)C(C)(C)C)ccc3ccccc23)=N1 (configuration not stated)", "Class Assignment": "met"}
{"Compound": "COC(=O)c1cn(NS(=O)(=O)c2ccc(OC)cc2)cc1C(=O)OC", "Class Assignment": "not met"}
{"Compound": "O=C(N/N=C/c1cc(Br)ccc1O)c1ccccc1", "Class Assignment": "not met"}
{"Compound": "CC1(C)CC(=O)C2=C(C1)Nc1ccccc1CC2c1c[nH]c2ccccc12 (configuration not stated)", "Class Assignment": "not met"}
{"Compound": "Cc1c[n+](CC(=O)c2ccc(I)cc2)c(C)s1", "Class Assignment": "not met"}
{"Compound": "O=C(Nc1ccc(C2=NCCN2)cc1)c1ccc(C(=O)Nc2ccc(C3=NCCN3)cc2)c(Cl)c1", "Class Assignment": "met"}
{"Compound": "CCCCc1ccc2nccc(N/N=C/c3ccc(OC)c4ccccc34)c2c1", "Class Assignment": "met"}
{"Compound": "Cc1ccc(S(=O)(=O)NNC2Oc3cc4c(cc3C(c3ccccc3O)C2C)OCO4)cc1 (configuration not stated)", "Class Assignment": "met"}
{"Compound": "O=C1C=CC(=O)N1c1ccc(-c2nc3ccccc3o2)cc1", "Class Assignment": "met"}
{"Compound": "O=S(=O)(Sc1ccccc1)C(c1ccccc1)c1ccccc1", "Class Assignment": "not met"}
{"Compound": "Cc1ccc(C)c(S(=O)(=O)Nc2c([N+](=O)[O-])cc([N+](=O)[O-])c3ccccc23)c1", "Class Assignment": "met"}
{"Compound": "FC(F)(F)c1nc(Cl)nc2nc[nH]c12", "Class Assignment": "not met"}
{"Compound": "CCOc1c(N=Nc2ccccc2OC)c(-c2ccccc2)nn1C(N)=S", "Class Assignment": "met"}
{"Compound": "Cc1ccsc1/C=N/Nc1cc(C)c2cccc(C)c2n1", "Class Assignment": "met"}
{"Compound": "COc1ccccc1NC(=O)/C(=C/c1ccccc1)C(C)=O", "Class Assignment": "met"}

----------
assay: NCI Yeast Anticancer Drug Screen. Data for the sgs1 mgt1 strain (AID 161); conditions: S. cerevisiae sgs1 mgt1 strain, at 50.0 µM (retest, dose inferred, filed as 5.0)
Compounds without any hit were thinned out: in the full panel of roughly 79,000, 15% have a hit. Activity calls are given as the source filed them. Rule as the data show it: active = growth inhibition above about 70%; inactive = the rest.
Outcome codes: active, inactive

{"Compound": "CC(=O)C(C=O)C(C)=O.CC(=O)CC(C)=O.CC(=O)CC(C)=O.[Ru]", "Class Assignment": "inactive"}
{"Compound": "Cc1ccccc1NC(=O)c1cc2cc(N=Nc3ccccc3C(=O)O)ccc2oc1=O", "Class Assignment": "active"}
{"Compound": "O=C(CC(=O)Nc1cccc(Cl)c1)NNCC(=O)Nc1nnc(-c2ccccc2)s1", "Class Assignment": "active"}
{"Compound": "O=c1[nH]c2ccccc2c2cccc(F)c12", "Class Assignment": "active"}
{"Compound": "CC(=O)C1(C(C)=O)C2=C(C(=O)C(Cl)=C(Cl)C2=O)N2C=CC=CC21 (stereo not given)", "Class Assignment": "active"}
